- testSystem: human JAK3 kinase domain (JH1) (Homo sapiens)
- Construct: recombinantly generated catalytic kinase (also known as JH1) domain of human JAK1, JAK2, JAK3 and TYK2
- Sequence (P52333 822-1111 limits assumed): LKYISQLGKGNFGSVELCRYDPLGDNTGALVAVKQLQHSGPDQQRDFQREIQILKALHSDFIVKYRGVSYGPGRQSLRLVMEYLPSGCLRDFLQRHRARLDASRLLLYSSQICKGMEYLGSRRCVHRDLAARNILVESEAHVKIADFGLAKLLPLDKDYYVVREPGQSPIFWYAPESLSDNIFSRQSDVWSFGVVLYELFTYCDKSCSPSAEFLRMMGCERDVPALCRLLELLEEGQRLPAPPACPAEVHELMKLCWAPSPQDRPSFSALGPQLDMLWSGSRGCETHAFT
- experimentSummary: JH1 biochemical assay for JAK3 (ADP-Glo kinase assay, recombinant JH1 catalytic domain, JAK3-974 peptide, 4 μM ATP)
- conditionNotes: JAK3 JH1, ADP-Glo
pIC50: −log10 of the molar value. Where a name gives a salt, the structure may show the parent alone.
// reported pIC50 per item

These recorded examples may help you get a feel for the data.
C[C@@H]1CN(c2n[nH]c3ncc(-c4cnn(C)c4)cc23)C(=O)[C@]1(C#N)C1CC1 = < 5.00
C[C@@H]1CN(c2nc(-c3ccn(C)c(=O)c3)cn3nccc23)C(=O)[C@]1(C#N)C1CC1 [Example 261, trifluoroacetate] = > 7.00
C[C@@H]1CN(c2nc(-c3cncnc3)cn3nccc23)C(=O)[C@]1(C#N)C1CC1 [Example 265, trifluoroacetate] = 5.30 to 6.00
C[C@@H]1CN(c2nc(-c3cnn(CC4(C)COC4)c3)cn3ncc(F)c23)C(=O)[C@]1(C#N)C1CC1 = > 7.00
C[C@@H]1CN(c2nc(-c3cnn([C@H]4CO[C@@H]4C)c3)cn3ncc(F)c23)C(=O)[C@]1(C#N)C1CC1 (relative stereo) = > 7.00

C[C@@H]1CN(c2nc(-c3cccc(F)n3)cn3nccc23)C(=O)[C@]1(C#N)C1CC1 [Example 255, trifluoroacetate] has a reported pIC50 of 6.00 to 7.00

Per the records, this compound ( C[C@@H]1CN(c2ccnn3cc(-c4cnn([C@@H]5COCC(F)(F)C5)c4)cc23)C(=O)[C@]1(C#N)C1CC1 (single isomer, unassigned) ) has pIC50 equal to > 7.00

Summary for this compound, "C[C@@H]1CN(c2nc(-c3cccnc3)cn3ncc(F)c23)C(=O)[C@]1(C#N)C1CC1" : pIC50 is 6.00 to 7.00

pIC50 measured on "Cc1ncn(-c2cc3c(N4C[C@@H](C)[C@@](C#N)(C5CC5)C4=O)ccnn3c2)n1" = 5.30 to 6.00

According to the records, this compound C[C@@H]1CN(c2nc(-c3ccc4c(cnn4C)c3)cn3nccc23)C(=O)[C@]1(C#N)C1CC1 [Example 225, trifluoroacetate] displays pIC50 of > 7.00

Kindly note the recorded pIC50 for "C[C@@H]1CN(c2ccnn3cc(-c4cnn([C@H]5C[C@H](C#N)C5)c4)cc23)C(=O)[C@]1(C#N)C1CC1" , which is > 7.00

====

Listing of entries alongside the reported IC50.
- testSystem: human JAK1 kinase domain (JH1) (Homo sapiens, UniProt P23458)
- Construct: recombinantly generated catalytic kinase (also known as JH1) domain of human JAK1, JAK2, JAK3 and TYK2
- Sequence (P23458 875-1153 limits assumed): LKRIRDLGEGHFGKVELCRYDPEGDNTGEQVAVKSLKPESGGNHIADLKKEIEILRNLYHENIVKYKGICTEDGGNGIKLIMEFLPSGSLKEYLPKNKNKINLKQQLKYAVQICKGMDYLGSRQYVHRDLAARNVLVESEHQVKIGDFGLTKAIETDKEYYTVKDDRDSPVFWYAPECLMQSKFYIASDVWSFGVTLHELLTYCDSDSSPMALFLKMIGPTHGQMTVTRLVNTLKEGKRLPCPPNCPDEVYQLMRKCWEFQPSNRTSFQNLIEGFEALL
- experimentSummary: JH1 biochemical assay for JAK1 (ADP-Glo kinase assay, recombinant JH1 catalytic domain, JAK3-342 peptide, 35 μM ATP)
- conditionNotes: JH1 kinase domain, ADP-Glo
Where a name gives a salt, the structure may show the parent alone.

Study these solved cases before continuing.
C[C@@H]1CN(c2ccnn3cc(-c4cccc(C(F)F)n4)cc23)C(=O)[C@]1(C#N)C1CC1 [Example 135, trifluoroacetate] = 100 to 1000 nM
C[C@@H]1CN(c2ccnn3cc(-c4cnn(C)n4)cc23)C(=O)[C@]1(C#N)C1CC1 [Example 99, trifluoroacetate] = 100 to 1000 nM
C[C@@H]1CN(c2ccnn3cc(-c4ccnc(F)c4)cc23)C(=O)[C@]1(C#N)C1CC1 [Example 73] = 100 to 1000 nM
C[C@@H]1CN(c2ccnn3cc(-c4ccc5ncnn5c4)cc23)C(=O)[C@]1(C#N)C1CC1 [Example 57] = 100 to 1000 nM
C[C@@H]1CN(c2ccnn3cc(-c4ccc(=O)n(C)c4)cc23)C(=O)[C@]1(C#N)C1CC1 [Example 83] = < 100 nM

COc1cc(-c2cc3c(N4CC[C@](C#N)(C5CC5)C4=O)ccnc3[nH]2)ccn1 [Example 5] tested on human JAK1 kinase domain (JH1) (Homo sapiens, UniProt P23458) gave IC50: 1000 to 5000 nM

Measured on human JAK1 kinase domain (JH1) (Homo sapiens, UniProt P23458), C[C@@H]1CN(c2nc(-c3ccc(=O)n(C(F)F)c3)cn3nccc23)C(=O)[C@]1(C#N)C1CC1 [Example 210] has a documented IC50 of < 100 nM

Case C[C@@H]1CN(c2nc(-c3cnn([C@H]4CCOC4)c3)cn3ncc(F)c23)C(=O)[C@]1(C#N)C1CC1 [Example 191] , human JAK1 kinase domain (JH1) (Homo sapiens, UniProt P23458), IC50 recorded as < 100 nM

Considering Cn1cc(-c2cc3c(N4C[C@@H](C(F)F)[C@@](C#N)(C5CC5)C4=O)ccnn3c2)cn1 (racemic) [Example 153] , its IC50 with human JAK1 kinase domain (JH1) (Homo sapiens, UniProt P23458) was recorded as 100 to 1000 nM

Considering Cn1cc(-c2cc3c(N4CC[C@H](C5CC5)C4=O)ccnn3c2)cn1 (single isomer, unassigned) [Example 36] , its IC50 with human JAK1 kinase domain (JH1) (Homo sapiens, UniProt P23458) was recorded as > 10000 nM

# lookup: COc1ncc(-c2cc3c(N4C[C@@H](C)[C@@](C#N)(C5CC5)C4=O)ccnn3c2)cc1C#N [Example 85] on human JAK1 kinase domain (JH1) (Homo sapiens, UniProt P23458), IC50 = 1000 to 5000 nM

Note to self: IC50 of COc1ncccc1-c1cc2c(N3C[C@@H](C)[C@@](C#N)(C4CC4)C3=O)ccnn2c1 [Example 96] with human JAK1 kinase domain (JH1) (Homo sapiens, UniProt P23458) was 1000 to 5000 nM

Tested on human JAK1 kinase domain (JH1) (Homo sapiens, UniProt P23458): C[C@@H]1CN(c2nc(-c3cnn(C)c3)cn3ncc(Cl)c23)C(=O)[C@]1(C#N)C1CC1 [Example 206] . Observed IC50: 100 to 1000 nM

# C[C@@H]1CN(c2ccnn3cc(-c4cnn(C5CCCCC5)c4)cc23)C(=O)[C@]1(C#N)C1CC1 [Example 169] with human JAK1 kinase domain (JH1) (Homo sapiens, UniProt P23458): IC50 is < 100 nM

Tested system human JAK1 kinase domain (JH1) (Homo sapiens, UniProt P23458); IC50 recorded for C[C@@H]1CN(c2ccnn3cc(-c4ccc(CC#N)cn4)cc23)C(=O)[C@]1(C#N)C1CC1 [Example 127, trifluoroacetate] was 100 to 1000 nM

Source of measurements: patent US20260297085A1
